Field: GI50. Provide a value for each of the molecules that follow.
- Tested on: U-251
- test details: NCI tumour cell line growth inhibition, 48 h
Active and inactive are the calls of the source. Rule as the data show it: active = GI50 up to about 1.1 µM and inactive = higher.

Provide GI50 values for the following items, in order.
1. COc1cccc(/C=C/c2cc(OC)c(OC)c(OC)c2)c1
2. COC(=O)C(C(=O)C(N)=O)c1csc(-n2nc(-c3ccccc3)cc2-c2ccccc2)n1 (stereo unspecified)
3. O=S(=O)(/C=C/c1ccc(F)cc1)Cc1ccc(CS(=O)(=O)/C=C/c2ccc(F)cc2)cc1
4. CCOC(=O)C(C)(C)Oc1ccc2c(=O)cc(-c3ccccc3)oc2c1
5. O=C(Nc1sccc1S(=O)(=O)c1ccc(Cl)cc1)c1ccc(Cl)cc1Cl
6. N#Cc1ccc(OCCSCCCCCCCCCCSCCOc2ccc(C#N)cc2)cc1
7. C=C(Br)CNCC(=C)Br

## Result
36.5 µM (inactive)
24.5 µM (inactive)
> 100 µM (inactive)
18.2 µM (inactive)
> 78.7 µM (inactive)
> 100 µM (inactive)
> 100 µM (inactive)
